# Test Details: in vivo
# Assay Setup: Balb/c nu/nu, mouse, iv, 40 pmol, total radioactivity, Spleen uptake
Readout Name: tissue uptake at 24 h (%ID/g)
Reply numerically in %ID/g, unit not repeated.

Lookup: Form field: reported tissue uptake at 24 h of CC(C)C[C@H](NC(=O)C[C@H](O)[C@H](CC(C)C)NC(=O)[C@H](Cc1c[nH]cn1)NC(=O)CNC(=O)[C@@H](NC(=O)[C@H](C)NC(=O)[C@H](Cc1c[nH]c2ccccc12)NC(=O)[C@H](CCC(N)=O)NC(=O)[C@@H](Cc1ccccc1)NC(=O)COCCOCCNC(=O)CCC(C(=O)O)N1CCN(CC(=O)O)CCN(CC(=O)O)CCN(CC(=O)O)CC1)C(C)C)C(N)=O (mixture of isomers) [[^111In]In-DOTAGA-PEG2-RM26, metal not drawn]
Found: 0.1
